Reference source for all entries: patent US20140120095A1

Here the recorded pEC50 is given for each entry.
# study.system: T1, recombinant human VEGF121 (human, UniProt P15692-9 27-147)
# T1 construct: also called rhVEGF121
# T1 sequence (looked up): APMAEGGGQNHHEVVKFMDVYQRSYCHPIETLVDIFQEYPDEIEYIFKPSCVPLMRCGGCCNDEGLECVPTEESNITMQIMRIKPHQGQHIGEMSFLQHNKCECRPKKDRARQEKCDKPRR
# experiment.notes: binding ELISA, coated rhVEGF121
# Experimental: Binding to recombinant human VEGF121 is assessed via a solid phase binding ELISA. […] Wells are blocked with a casein solution (1% in PBS).
Units for pEC50: none; it is -log10 of a concentration expressed in mol/L.

Below: 2 binders and their reported pEC50.
VEGFBII024 (VHH, not shown: small tags and cut ends, Bivalent anti-VEGF VHH; also called VEGFBII23B04-40GS-86H09) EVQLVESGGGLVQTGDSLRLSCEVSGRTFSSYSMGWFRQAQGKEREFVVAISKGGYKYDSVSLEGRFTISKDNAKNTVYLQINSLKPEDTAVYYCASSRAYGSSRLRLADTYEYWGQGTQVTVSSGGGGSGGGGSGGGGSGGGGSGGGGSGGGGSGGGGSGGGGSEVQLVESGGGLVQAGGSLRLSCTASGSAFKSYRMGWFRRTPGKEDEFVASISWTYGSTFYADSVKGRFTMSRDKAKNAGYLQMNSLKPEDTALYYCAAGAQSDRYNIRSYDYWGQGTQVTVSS
9.49
VEGFBII010 (VHH, not shown: small tags and cut ends, Homodimeric bivalent anti-VEGF VHH; also called VEGFBII23B04-35GS-23B04) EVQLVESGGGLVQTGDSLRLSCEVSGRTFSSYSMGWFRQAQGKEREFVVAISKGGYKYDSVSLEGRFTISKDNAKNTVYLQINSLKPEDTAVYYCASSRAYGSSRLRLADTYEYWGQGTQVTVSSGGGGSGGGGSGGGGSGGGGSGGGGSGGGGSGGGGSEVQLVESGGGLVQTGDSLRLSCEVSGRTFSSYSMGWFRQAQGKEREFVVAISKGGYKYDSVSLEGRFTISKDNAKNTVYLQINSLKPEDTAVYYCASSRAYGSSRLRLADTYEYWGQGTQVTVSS
9.04

Prompt line: GET /values?readout=pEC50&item= VEGFBII025 (VHH, not shown: small tags and cut ends, Bivalent anti-VEGF VHH; also called VEGFBII10E07-40GS-23B04) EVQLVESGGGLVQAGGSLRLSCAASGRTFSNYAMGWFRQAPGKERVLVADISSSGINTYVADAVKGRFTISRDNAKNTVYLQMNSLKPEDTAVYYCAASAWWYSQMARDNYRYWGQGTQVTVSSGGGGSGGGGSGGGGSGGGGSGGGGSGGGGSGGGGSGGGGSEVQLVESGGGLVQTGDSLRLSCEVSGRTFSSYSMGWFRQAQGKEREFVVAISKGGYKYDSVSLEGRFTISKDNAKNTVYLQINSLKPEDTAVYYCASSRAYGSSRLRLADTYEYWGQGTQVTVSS
Response line: 9.32
